# ASSAY_INFO: anti-His antibody binders, primary screen, artefact control for SMM control protein annotation, biochemical, small-molecule microarray, 635 nm fluorescence (AID 1128);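 note: score merges feature fluorescence with signal-to-noise for each printed compound spot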
# SETUP_CONDITIONS: anti-His Alexa647 antibody binding, higher = more signal
MEASURED_ENDPOINT: composite z-score
Lab note: record the figure alone, no unit after it.

A selection of reference data follows.
MOLECULE: CC(C)(C)N1CC=CC23O[C@@H]4/C=C\CCCOC(=O)C4[C@H]2C(=O)N(CCCCCCO)[C@@H]3C1=O (some centres not stated)
QUANTITATIVE_READOUT: 3.08

MOLECULE: CCOC(=O)C1=CC[C@@H](c2ccc(F)cc2)N(S(=O)(=O)c2ccc(C)cc2)[C@H]1c1ccc([N+](=O)[O-])cc1
QUANTITATIVE_READOUT: 0.353

MOLECULE: O=C1NC(=O)C2C1C=CC(C(O)c1ccc(F)cc1)N2Nc1ccccn1 (configuration not stated)
QUANTITATIVE_READOUT: 0.842

MOLECULE: COc1ccc([Si](C)(C)[C@H]2[C@H](CCn3cc([C@H](O)c4ccccc4)nn3)O[C@@]3(C(=O)N(C)c4c(Br)cc(C)cc43)[C@@H]2C)cc1
QUANTITATIVE_READOUT: 0.523

MOLECULE: CCOC(=O)C[C@H]1[C@H](OC(=O)c2ccc(C(=O)c3ccccc3)cc2)[C@@H](NC(=O)c2ccc3ccccc3c2)c2cc(OCCCO)ccc2N1C(=O)c1ccc2ccccc2n1
QUANTITATIVE_READOUT: 0.565

Req: composite z-score lookup needed for C#CCN(C/C=C/c1ccccc1)[C@H](CO[Si](C)(C)C(C)(C)C)c1ccccc1 , thanks.
Resp: 0.953

Req: composite z-score lookup needed for CC(C)C[C@@H]1NC(=O)[C@H]2C[C@@H](C(=O)NCCCCCCNC(=O)CS)[C@@H](c3ccc(O)cc3)N2C1=O , thanks.
Resp: 2.26

Req: composite z-score lookup needed for CO[C@H]1O[C@H](CO)[C@@H](OC(=O)Nc2ccccc2)[C@@H]2OC(=O)[C@H](Cc3ccccc3)C/C=C/C[C@@H](Cc3ccccc3)C(=O)O[C@@H]12 , thanks.
Resp: 2.3

Req: composite z-score lookup needed for CN1C(=O)[C@]2(CCC(=O)OC(C)(C)C)N=C(c3ccc(OCCCO)cc3)O[C@@H]2c2ccccc21 , thanks.
Resp: 1.2

Req: composite z-score lookup needed for C[C@H]1NC(=O)C([C@@H](C)OCc2ccccc2)NC(=O)[C@@]23C(=O)N[C@@H](Cc4ccccc4)C2[C@H](C)[C@@]2(C)O[C@H]2C3/C=C/C/C=C\CNC1=O (some centres not stated) , thanks.
Resp: 0.296

Req: composite z-score lookup needed for CCOC(=O)C[C@H]1[C@H](OC(=O)c2cc3ccccc3oc2=O)[C@@H](NC(=O)C2CCCCC2)c2cc(OCCCO)ccc2N1C(=O)Cc1ccc(OC)cc1 , thanks.
Resp: 0.737

Req: composite z-score lookup needed for Cc1ccc(F)cc1S(=O)(=O)N[C@@H]1CCN(Cc2ccc3c(c2)OCO3)C1 , thanks.
Resp: -0.146

Req: composite z-score lookup needed for CN(C)CCCC[C@@H]1NC(=O)[C@@H]2C[C@H](C(=O)NCCCCCCNC(=O)CS)[C@H](c3cccc(OCCO)c3)N2C1=O , thanks.
Resp: 1.5

Req: composite z-score lookup needed for COc1cc2c(cc1O)C(c1ccc(CN3CCCC3)cc1)N(Cc1cccc(OC(F)(F)F)c1)CC2 (configuration not stated) , thanks.
Resp: 1.67
